Experiment: Plasma pharmacokinetics after oral TAK-285 (LC-MS/MS, noncompartmental)
Format: in vivo, human (Japanese patients)
Conditions: human, plasma, oral, at all doses, single dose; read-out: estimated terminal-phase half-life (t1/2)
metric-name: half-life

Please fill in: half-life reported for "CC(C)(O)CC(=O)NCCn1ccc2ncnc(Nc3ccc(Oc4cccc(C(F)(F)F)c4)c(Cl)c3)c21" = 6 to 9 h

====

Experiment: Plasma pharmacokinetics after oral TAK-285 (LC-MS/MS, noncompartmental)
Type: in vivo, human (Japanese patients)
Conditions: human, plasma, oral; multiple dosing day 21; 50 mg b.i.d., dose escalation cohort; mean (s.d.); read-out: AUC0–tau
metric-name: AUC (µg·h/mL)
Give just the number in µg·h/mL; leave the unit off.

// AUC value for CC(C)(O)CC(=O)NCCn1ccc2ncnc(Nc3ccc(Oc4cccc(C(F)(F)F)c4)c(Cl)c3)c21 [TAK-285] : 2.72

Attribution: paper PMC3322948
